Where these numbers come from: ChEMBL document CHEMBL3259610

run.description: Half life in CD1 mouse liver S9 fraction at 1 uM using 1% DMSO
Format: ADME, subcellular
readout.type: half-life at 1 µM (min)
# value in min; strip the unit string

Find the recorded half-life at 1 µM belonging to CN1C/C(=C\c2ccccn2)C(=O)/C(=C/c2ccccn2)C1 and report it.
38

====

run.description: Metabolic stability in human liver S9 fraction assessed as remaining compound level at 2 uM using 0.2% DMSO measured after 1 hr by LC/MS-MS analysis in presence of NADPH
Type: ADME, subcellular
test.settings: read-out: Stability
readout.type: remaining at 1 h, 2 µM (%)
Note: unit % is implicit; provide only the numeric part.

I'd like to know its remaining at 1 h, 2 µM. The compound in question is CN1C/C(=C\c2ccccn2)C(=O)/C(=C/c2ccccn2)C1
4.1
